- SYSTEM TESTED: T1, human PDGFRβ (human, UniProt P09619 33-530, limits assumed)
- T1 construct: also called hPDGFRβ; recombinant human PDGFRβ
- T1 sequence (P09619 33-530 limits assumed): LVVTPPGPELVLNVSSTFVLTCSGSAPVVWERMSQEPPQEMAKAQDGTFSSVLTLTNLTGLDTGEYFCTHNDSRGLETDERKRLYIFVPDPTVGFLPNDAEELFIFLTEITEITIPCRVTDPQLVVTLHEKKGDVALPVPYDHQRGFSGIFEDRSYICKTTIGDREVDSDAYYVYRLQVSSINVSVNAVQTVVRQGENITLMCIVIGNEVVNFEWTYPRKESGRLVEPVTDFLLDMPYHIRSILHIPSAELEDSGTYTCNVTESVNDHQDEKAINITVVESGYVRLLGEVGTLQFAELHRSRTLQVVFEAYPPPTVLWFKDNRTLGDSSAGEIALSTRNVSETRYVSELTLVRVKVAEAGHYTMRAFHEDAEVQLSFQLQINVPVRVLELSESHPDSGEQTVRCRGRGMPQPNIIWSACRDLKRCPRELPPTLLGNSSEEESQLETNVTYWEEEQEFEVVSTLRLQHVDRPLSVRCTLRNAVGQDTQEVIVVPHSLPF
- PROTOCOL DETAILS: ELISA: plate coated with 2 ug/mL human PDGFRβ or human Fc, in vitro translated crude lysate diluted 1:3, anti-flag-HRP, OD450
VALUE TYPE: binding result

{"BINDER": "B11 scFv (scFv, V domains shown, VL of the second round pool paired with XB1511 VH; also called XB1511/B11 scFv) VH: QVQLVQSGAEVKKPGSSVKVSCKASGGTFSSYAISWVRQAPGQGLEWMGGIIPIFGTANYAQKFQGRVTITADESTSTAYMELSSLRSEDTAVYYCAIHGGDRSYWGQGTLVTVSS VL: QSVLTQSPGTLSLSPGERATLSCRASQSVSSNYLAWYQQKPGQAPRLLIYGASSRASGIPVRVSGSGSGTDFTLTISRLEPEDFAVYYCQQYGSSPWTFGQGTKLTVL", "VALUE TYPE": "binding result", "RESULT": "binds"}
